Each recorded value in this set is attributed to paper PMC12282101.

Tested on: Huh-7.5.1 cells
protocol_description: Cell viability in the chemical screen (Cell TiterGlo)
test_conditions: 10 µM compound, 72 h
value_kind: Viability Percent DMSO (Percent DMSO)
Just the number please, in Percent DMSO, no unit attached.

- record_smiles: "COc1cc2ncnc(Nc3cccc(Cl)c3)c2cc1OC"
  reported: 164
- record_smiles: "OC[C@H]1O[C@@H]2O[C@H]3[C@H](O)[C@@H](O)[C@@H](O[C@H]4[C@H](O)[C@@H](O)[C@@H](O[C@H]5[C@H](O)[C@@H](O)[C@@H](O[C@H]6[C@H](O)[C@@H](O)[C@@H](O[C@H]7[C@H](O)[C@@H](O)[C@@H](O[C@H]8[C@H](O)[C@@H](O)[C@@H](O[C@H]1[C@H](O)[C@H]2O)O[C@@H]8CO)O[C@@H]7CO)O[C@@H]6CO)O[C@@H]5CO)O[C@@H]4CO)O[C@@H]3CO"
  reported: 117

-- ask Would you mind telling me what Viability Percent DMSO value was observed for Nc1ncnc2c1ncn2[C@@H]1O[C@H](CO)[C@@H](O)[C@@H]1O ?
-- reply 119

-- ask Can you check CCn1cc(C(=O)O)c(=O)c2cc(F)c(N3CCNCC3)nc21 next?
-- reply 159

-- ask Can you check O=C1c2cccc(O)c2C(=O)c2c(O)cc(CO)cc21 next?
-- reply 90

-- ask Can you check CN(C)[C@@H]1C(O)=C(C(N)=O)C(=O)[C@@]2(O)C(O)=C3C(=O)c4c(O)cccc4[C@@](C)(O)[C@H]3[C@H](O)[C@@H]12 next?
-- reply 103

* * *

System: Huh-7.5.1 cells
protocol_description: Cell viability in the chemical screen (Cell TiterGlo)
test_conditions: 10 µM compound, 72 h
value_kind: Viability Percent DMSO (Percent DMSO)
Just the number please, in Percent DMSO, no unit attached.

Consider the following illustrative entries.
- molecule: "C[C@@H]1CC[C@H]2[C@@H](C)C(=O)O[C@@H]3O[C@@]4(C)CC[C@@H]1[C@]32OO4"
  value_kind: "Viability Percent DMSO"
  u: "Percent DMSO"
  reported: 101
- molecule: "CC(C)OC(=O)C1=CN(C(=O)c2ccc(F)c(F)c2)CC(C)(C)c2c1[nH]c1ccccc21 [Turofexorate Isopropyl]"
  value_kind: "Viability Percent DMSO"
  u: "Percent DMSO"
  reported: 161
- molecule: "CC(=O)N(CC(O)CO)c1c(I)c(C(=O)NCC(O)CO)c(I)c(C(=O)NCC(O)CO)c1I (stereo not shown) [Iohexol]"
  value_kind: "Viability Percent DMSO"
  u: "Percent DMSO"
  reported: 74
- molecule: "COc1ncnc(NS(=O)(=O)c2ccc(N)cc2)c1OC"
  value_kind: "Viability Percent DMSO"
  u: "Percent DMSO"
  reported: 118
- molecule: "CCOCc1nc2c(N)nc3ccccc3c2n1CC(C)(C)O"
  value_kind: "Viability Percent DMSO"
  u: "Percent DMSO"
  reported: 107
- molecule: "CC(C)CN(C[C@@H](O)[C@H](Cc1ccccc1)NC(=O)O[C@H]1CCOC1)S(=O)(=O)c1ccc(N)cc1"
  value_kind: "Viability Percent DMSO"
  u: "Percent DMSO"
  reported: 121

Continue with the next molecule.
-- ask Would you mind telling me what Viability Percent DMSO value was observed for Cc1cc(C#N)cc(C)c1Oc1nc(Nc2ccc(C#N)cc2)nc(N)c1Br ?
-- reply 112

* * *

Test system: Huh-7.5.1 cells
protocol_description: Cell viability in the chemical screen (Cell TiterGlo)
test_conditions: 10 µM compound, 72 h
// values below are reported Viability Percent DMSO
Just the number please, in Percent DMSO, no unit attached.

Consider the following illustrative entries.
- molecule: "CCOC(=O)c1c(CSc2ccccc2)n(C)c2cc(Br)c(O)c(CN(C)C)c12.Cl [Arbidol hydrochloride]"
  Viability Percent DMSO [Percent DMSO]: 105
- molecule: "CC1(C)[C@@H](O[C@H]2O[C@H](C(=O)O)[C@@H](O)[C@H](O)[C@H]2O[C@@H]2O[C@H](C(=O)O)[C@@H](O)[C@H](O)[C@H]2O)CC[C@]2(C)[C@H]3C(=O)C=C4[C@@H]5C[C@@](C)(C(=O)O)CC[C@]5(C)CC[C@@]4(C)[C@]3(C)CC[C@@H]12 [Glycyrrhizin]"
  Viability Percent DMSO [Percent DMSO]: 124
- molecule: "O=C1C[C@@H](c2ccc(O)cc2)Oc2cc(O)cc(O)c21 [Naringenin]"
  Viability Percent DMSO [Percent DMSO]: 112
- molecule: "O=C(/C=C\\n1cnc(-c2cc(C(F)(F)F)cc(C(F)(F)F)c2)n1)NNc1ccccn1 [Verdinexor]"
  Viability Percent DMSO [Percent DMSO]: 174
- molecule: "Nc1nc2c(ncn2[C@@H]2O[C@H](CO)[C@@H](O)[C@H]2O)c(=O)[nH]1 [Guanosine]"
  Viability Percent DMSO [Percent DMSO]: 126

-- ask Would you mind telling me what Viability Percent DMSO value was observed for C[C@@H]1CCO[C@H]2Cn3cc(C(=O)NCc4ccc(F)cc4F)c(=O)c(O)c3C(=O)N12 [Dolutegravir] ?
-- reply 159

-- ask Can you check C[C@@H](c1ncncc1F)[C@](O)(Cn1cncn1)c1ccc(F)cc1F [Voriconazole] next?
-- reply 123

-- ask Can you check Cc1cc(O)cc(C)c1Cl [Chloroxylenol] next?
-- reply 108

-- ask Can you check CN(C)c1ccc(C(=C2C=CC(=[N+](C)C)C=C2)c2ccc(N(C)C)cc2)cc1 [Crystal Violet] next?
-- reply 20

-- ask Can you check Cc1cn([C@@H]2C[C@@H](O)[C@H](CO)O2)c(=O)[nH]c1=O [Telbivudine] next?
-- reply 108

-- ask Can you check CC1(C)S[C@@H]2[C@H](NC(=O)[C@H](NC(=O)N3CCNC3=O)c3ccccc3)C(=O)N2[C@H]1C(=O)O [Azlocillin sodium] next?
-- reply 98

-- ask Can you check C=C(C)[C@@H]1CC[C@]2(C(=O)O)CC[C@]3(C)[C@H](CC[C@@H]4[C@@]5(C)CC[C@H](O)C(C)(C)[C@@H]5CC[C@]43C)[C@@H]12 [Betulinic acid] next?
-- reply 116

-- ask Can you check C=C1[C@H](CO)[C@@H](O)C[C@@H]1n1cnc2c(=O)[nH]c(N)nc21 [Entecavir hydrate] next?
-- reply 125

-- ask Can you check C=CC1=C(C(=O)O)N2C(=O)[C@@H](NC(=O)/C(=N\OCC(=O)O)c3csc(N)n3)[C@H]2SC1 [Cefixime] next?
-- reply 109

-- ask Can you check CC1(C)S[C@@H]2[C@H](NC(=O)[C@H](N)c3ccccc3)C(=O)N2[C@H]1C(=O)O [Ampicillin Trihydrate] next?
-- reply 116

-- ask Can you check COc1cc(O)c(CC=C(C)C)c(O)c1C(=O)/C=C/c1ccc(O)cc1 [Xanthohumol] next?
-- reply 102

-- ask Can you check Cc1nnc(C(=O)NC(C)(C)c2nc(C(=O)NCc3ccc(F)cc3)c(O)c(=O)n2C)o1 [Raltegravir] next?
-- reply 132

-- ask Can you check COc1ccnc(C[S+]([O-])c2nc3ccc(-n4cccc4)cc3[n-]2)c1C.[Na+] (stereo not drawn) [Ilaprazole sodium] next?
-- reply 159

-- ask Can you check Cc1nc(N(C)C(=O)Cc2ccc(-c3ccccn3)cc2)sc1S(N)(=O)=O [Pritelivir] next?
-- reply 127

-- ask Can you check C[C@@]1(F)[C@H](O)[C@@H](CO)O[C@H]1n1ccc(=O)[nH]c1=O [PSI6206] next?
-- reply 104

-- ask Can you check O=C(Nc1ccccc1)c1ccccc1O [Salicylanilide] next?
-- reply 120

* * *

System: Huh-7.5.1 cells
test_conditions: 10 µM
Structures can show the parent of a compound that is named as a salt.
// values below are reported Viability Percent DMSO
Please provide the amount together with its unit, number first.

- compound: "Clc1ccc(C(Cn2ccnc2)OCc2ccsc2Cl)c(Cl)c1 (centres unmarked)"
  target_or_system: "Huh-7.5.1 cells"
  Viability Percent DMSO: "93 Percent DMSO"
- compound: "Cc1ccc(NC(=O)C(=O)NC2CC(C)(C)NC(C)(C)C2)cc1"
  target_or_system: "Huh-7.5.1 cells"
  Viability Percent DMSO: "121 Percent DMSO"
- compound: "CC(C)(C)Oc1cccc2nc(N)nc(N)c12"
  target_or_system: "Huh-7.5.1 cells"
  Viability Percent DMSO: "16 Percent DMSO"
- compound: "COC(=O)N[C@H](C(=O)NNC[C@H](O)[C@H](Cc1ccccc1)NC(=O)[C@@H](NC(=O)OC)C(C)(C)C)C(C)(C)C"
  target_or_system: "Huh-7.5.1 cells"
  Viability Percent DMSO: "159 Percent DMSO"
- compound: "S=C(NCCc1ccccn1)Nc1ccc(Br)cn1"
  target_or_system: "Huh-7.5.1 cells"
  Viability Percent DMSO: "165 Percent DMSO"
- compound: "CC(C)OC(=O)[C@H](C)N[P@](=O)(CO[C@H](C)Cn1cnc2c(N)ncnc21)Oc1ccccc1 [Tenofovir alafenamide]"
  target_or_system: "Huh-7.5.1 cells"
  Viability Percent DMSO: "75 Percent DMSO"

-- ask Would you mind telling me what Viability Percent DMSO value was observed for Nc1nc(=O)n([C@@H]2CS[C@H](CO)O2)cc1F ?
-- reply 123 Percent DMSO

-- ask Can you check NC12CC3CC(CC(C3)C1)C2 [Amantadine hydrochloride] next?
-- reply 111 Percent DMSO
